# target.desc: KOR (Homo sapiens, UniProt P41145)
# Sequence (P41145 whole entry): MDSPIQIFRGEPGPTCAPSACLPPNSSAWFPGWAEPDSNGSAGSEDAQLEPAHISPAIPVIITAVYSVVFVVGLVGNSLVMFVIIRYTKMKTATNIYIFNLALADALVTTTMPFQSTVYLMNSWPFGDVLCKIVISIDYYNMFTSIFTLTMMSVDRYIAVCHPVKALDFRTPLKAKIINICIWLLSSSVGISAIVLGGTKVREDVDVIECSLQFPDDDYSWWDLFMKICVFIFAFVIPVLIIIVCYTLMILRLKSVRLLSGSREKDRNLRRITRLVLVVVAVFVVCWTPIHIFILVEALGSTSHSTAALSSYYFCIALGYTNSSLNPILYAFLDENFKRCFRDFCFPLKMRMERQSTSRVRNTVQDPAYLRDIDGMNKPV
# protocol.summary: biochemical
# Format: binding
# assay.conditions: KOR, Ki
quantity.measured: pKi
Recall that pKi is obtained by taking minus log10 of the concentration measured in molar.

Qu. # get_value(readout= pKi, system= KOR (Homo sapiens, UniProt P41145)) for CNc1nc(C#Cc2ccc(Cl)s2)nc2c1ncn2[C@H]1[C@H](O)[C@H](O)[C@]2(C(=O)NCCN)C[C@H]12
Ans. 5.55

----------
Observed Ki values for rat kidney TSPO (Rattus norvegicus) are listed in what follows.
Hi! Could you send only the number? It should be in nM, unit omitted.

Qu. Consider the molecule CNc1nc(C#Cc2ccc(Cl)s2)nc2c1ncn2[C@H]1[C@H](O)[C@H](O)[C@]2(C(=O)OCc3ccccc3)C[C@H]12 and give its measured Ki.
Ans. 4050

Qu. Consider the molecule CCCOC(=O)[C@@]12C[C@@H]1[C@@H](n1cnc3c(NC)nc(C#Cc4ccc(Cl)s4)nc31)[C@H](O)[C@@H]2O and give its measured Ki.
Ans. 1160

----------
# target.desc: UniProtKB Q60613
# Sequence (Q60613 whole entry): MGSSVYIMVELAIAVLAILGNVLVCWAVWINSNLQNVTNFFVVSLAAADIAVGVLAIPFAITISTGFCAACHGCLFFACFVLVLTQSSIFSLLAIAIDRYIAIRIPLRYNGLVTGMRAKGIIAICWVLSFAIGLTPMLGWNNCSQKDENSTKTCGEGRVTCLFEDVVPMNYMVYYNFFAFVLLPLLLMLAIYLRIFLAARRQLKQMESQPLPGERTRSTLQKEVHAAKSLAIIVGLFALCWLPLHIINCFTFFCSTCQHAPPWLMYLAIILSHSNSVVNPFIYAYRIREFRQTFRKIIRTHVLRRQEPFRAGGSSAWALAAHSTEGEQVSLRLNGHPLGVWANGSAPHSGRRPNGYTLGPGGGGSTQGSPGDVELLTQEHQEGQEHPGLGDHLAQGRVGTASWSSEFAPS
# protocol.summary: mA2AAR binding
# assay.conditions: read-out: mA2AAR binding, % inhibition at 10 μM
The entries below are paired with their reported inhibition at 10 µM.
Hi! Could you send only the number? It should be in %, unit omitted.

The following molecules have reported results that may help.
Qu. Consider the molecule CCCOC(=O)[C@@]12C[C@@H]1[C@@H](n1cnc3c(NC)nc(C#Cc4ccc(Cl)s4)nc31)[C@H](O)[C@@H]2O and give its measured inhibition at 10 µM.
Ans. 13

Qu. Consider the molecule CCOC(=O)[C@@]12C[C@@H]1[C@@H](n1ccc3c(NC)nc(C#Cc4ccc(Cl)s4)nc31)[C@H](O)[C@@H]2O and give its measured inhibition at 10 µM.
Ans. 10

Qu. Consider the molecule CCOC(=O)[C@@]12C[C@@H]1[C@@H](n1cnc3c(NC)cc(C#Cc4ccc(Cl)s4)nc31)[C@H](O)[C@@H]2O and give its measured inhibition at 10 µM.
Ans. 5

More entries:
Qu. Consider the molecule CCOC(=O)[C@@]12C[C@@H]1[C@@H](n1cnc3c(NC)nc(C#Cc4ccc(Cl)s4)nc31)[C@H](O)[C@@H]2O and give its measured inhibition at 10 µM.
Ans. 10

Qu. Consider the molecule CNc1nc(C#Cc2ccc(Cl)s2)nc2c1ncn2[C@@H]1O[C@H](C(=O)OC)[C@@H](O)[C@H]1O and give its measured inhibition at 10 µM.
Ans. 12

----------
# target.desc: DOR (Homo sapiens, UniProt P41143)
# Sequence (P41143 whole entry): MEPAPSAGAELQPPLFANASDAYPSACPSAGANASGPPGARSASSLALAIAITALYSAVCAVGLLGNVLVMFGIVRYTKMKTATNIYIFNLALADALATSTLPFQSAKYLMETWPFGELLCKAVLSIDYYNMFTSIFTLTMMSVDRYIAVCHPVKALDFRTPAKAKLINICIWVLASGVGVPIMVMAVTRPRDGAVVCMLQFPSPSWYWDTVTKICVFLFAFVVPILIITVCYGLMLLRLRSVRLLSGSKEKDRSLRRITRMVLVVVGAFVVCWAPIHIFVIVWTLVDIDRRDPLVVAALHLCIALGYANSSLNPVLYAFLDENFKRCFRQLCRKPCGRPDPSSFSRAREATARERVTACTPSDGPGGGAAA
# protocol.summary: β-arrestin-recruitment TANGO assay at DOR
# Format: cell-based
# assay.conditions: 10 μM; vs standard agonist = 100%
quantity.measured: DOR Ag (%)

The following molecules have reported results that may help.
Qu. Consider the molecule CNc1nc(C#Cc2ccc(Cl)s2)nc2c1ncn2[C@H]1[C@H](O)[C@H](O)[C@]2(C(=O)OCc3ccccc3)C[C@H]12 and give its measured DOR Ag (%).
Ans. –1.9%

Qu. Consider the molecule CCOC(=O)[C@@]12C[C@@H]1[C@@H](n1ccc3c(NC)nc(C#Cc4ccc(Cl)s4)nc31)[C@H](O)[C@@H]2O and give its measured DOR Ag (%).
Ans. –0.6%

Qu. Consider the molecule CCOC(=O)[C@@]12C[C@@H]1[C@@H](n1ccc3c(NC)nc(C#Cc4ccc(Br)s4)nc31)[C@H](O)[C@@H]2O and give its measured DOR Ag (%).
Ans. –1.1%

Qu. Consider the molecule CCOC(=O)[C@@]12C[C@@H]1[C@@H](n1cnc3c(NC)nc(C#Cc4ccc(Br)s4)nc31)[C@H](O)[C@@H]2O and give its measured DOR Ag (%).
Ans. –1.7%

More entries:
Qu. Consider the molecule CCOC(=O)[C@@]12C[C@@H]1[C@@H](n1cnc3c(NC)nc(C#Cc4ccc(Cl)s4)nc31)[C@H](O)[C@@H]2O and give its measured DOR Ag (%).
Ans. 0.7%

Qu. Consider the molecule CCCCC(=O)[C@@]12C[C@@H]1[C@@H](n1ccc3c(NC)nc(C#Cc4ccc(Cl)s4)nc31)[C@H](O)[C@@H]2O and give its measured DOR Ag (%).
Ans. 6.7%

----------
# target.desc: mA1AR (Mus musculus)
# Sequence (Q60612 1-326): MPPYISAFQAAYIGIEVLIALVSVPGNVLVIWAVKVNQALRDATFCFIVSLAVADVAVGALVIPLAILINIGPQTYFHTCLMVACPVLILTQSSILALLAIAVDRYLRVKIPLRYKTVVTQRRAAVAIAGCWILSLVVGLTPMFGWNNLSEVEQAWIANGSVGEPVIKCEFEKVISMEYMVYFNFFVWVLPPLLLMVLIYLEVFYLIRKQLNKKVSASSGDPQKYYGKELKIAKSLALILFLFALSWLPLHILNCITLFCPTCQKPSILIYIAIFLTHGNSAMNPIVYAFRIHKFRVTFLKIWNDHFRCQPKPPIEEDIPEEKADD
# protocol.summary: mA1AR binding
# assay.conditions: read-out: mA1AR binding, % inhibition at 10 μM
The entries below are paired with their reported inhibition at 10 µM.
Hi! Could you send only the number? It should be in %, unit omitted.

The following molecules have reported results that may help.
Qu. Consider the molecule CCOC(=O)[C@@]12C[C@@H]1[C@@H](n1cnc3c(NC)nc(C#Cc4ccc(Cl)s4)nc31)[C@H](O)[C@@H]2O and give its measured inhibition at 10 µM.
Ans. 43

Qu. Consider the molecule CCOC(=O)[C@@]12C[C@@H]1[C@@H](n1cnc3c(NC)cc(C#Cc4ccc(Cl)s4)nc31)[C@H](O)[C@@H]2O and give its measured inhibition at 10 µM.
Ans. 54

Qu. Consider the molecule CCCOC(=O)[C@@]12C[C@@H]1[C@@H](n1cnc3c(NC)nc(C#Cc4ccc(Cl)s4)nc31)[C@H](O)[C@@H]2O and give its measured inhibition at 10 µM.
Ans. 53

More entries:
Qu. Consider the molecule CCOC(=O)[C@@]12C[C@@H]1[C@@H](n1ccc3c(NC)nc(C#Cc4ccc(Cl)s4)nc31)[C@H](O)[C@@H]2O and give its measured inhibition at 10 µM.
Ans. 32

Qu. Consider the molecule CNc1nc(C#Cc2ccc(Cl)s2)nc2c1ncn2[C@@H]1O[C@H](C(=O)OC)[C@@H](O)[C@H]1O and give its measured inhibition at 10 µM.
Ans. 62

----------
# target.desc: CYP2D6 (Homo sapiens)
# Sequence (P10635 whole entry): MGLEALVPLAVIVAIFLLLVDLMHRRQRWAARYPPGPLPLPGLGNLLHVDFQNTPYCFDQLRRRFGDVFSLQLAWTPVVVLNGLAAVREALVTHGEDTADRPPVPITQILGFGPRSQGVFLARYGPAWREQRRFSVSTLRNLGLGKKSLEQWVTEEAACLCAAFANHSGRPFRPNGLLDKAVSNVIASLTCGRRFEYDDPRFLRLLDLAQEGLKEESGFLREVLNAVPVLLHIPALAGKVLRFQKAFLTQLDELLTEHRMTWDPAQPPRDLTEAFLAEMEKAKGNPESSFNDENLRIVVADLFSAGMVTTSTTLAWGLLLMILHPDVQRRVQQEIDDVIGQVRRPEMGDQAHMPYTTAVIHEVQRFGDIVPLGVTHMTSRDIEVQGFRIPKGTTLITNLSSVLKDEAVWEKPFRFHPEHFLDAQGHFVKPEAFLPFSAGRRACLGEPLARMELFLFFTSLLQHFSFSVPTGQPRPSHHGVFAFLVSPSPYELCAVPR
pIC50: −log10 of the molar value.
quantity.measured: pIC50

Qu. # get_value(readout= pIC50, system= CYP2D6 (Homo sapiens)) for CCOC(=O)[C@@]12C[C@@H]1[C@@H](n1ccc3c(NC)nc(C#Cc4ccc(Cl)s4)nc31)[C@H](O)[C@@H]2O [compound 28]
Ans. ≤ 5.00

----------
The entries below are paired with their reported pKi.
# target.desc: DOR (Homo sapiens)
# protocol.summary: Radioligand binding at DOR
Recall that pKi is obtained by taking minus log10 of the concentration measured in molar.

Qu. Consider the compound O[C@@H]1[C@H](O)[C@@H]2C[C@@H]2[C@H]1n1ccc2c(NC(C3CC3)C3CC3)nc(C#Cc3ccccc3)nc21 and give its measured pKi.
Ans. 5.59

Alright, here's another compound for you.
Qu. Consider the compound CCOC(=O)[C@@]12C[C@@H]1[C@@H](n1ccc3c(NCCc4ccccc4)nc(C#Cc4ccccc4)nc31)[C@@H]1OC(C)(C)O[C@@H]12 and give its measured pKi.
Ans. 6.06

----------
The entries below are paired with their reported inhibition at 10 µM.
# target.desc: hA1AR (Homo sapiens)
# Sequence (P30542 whole entry): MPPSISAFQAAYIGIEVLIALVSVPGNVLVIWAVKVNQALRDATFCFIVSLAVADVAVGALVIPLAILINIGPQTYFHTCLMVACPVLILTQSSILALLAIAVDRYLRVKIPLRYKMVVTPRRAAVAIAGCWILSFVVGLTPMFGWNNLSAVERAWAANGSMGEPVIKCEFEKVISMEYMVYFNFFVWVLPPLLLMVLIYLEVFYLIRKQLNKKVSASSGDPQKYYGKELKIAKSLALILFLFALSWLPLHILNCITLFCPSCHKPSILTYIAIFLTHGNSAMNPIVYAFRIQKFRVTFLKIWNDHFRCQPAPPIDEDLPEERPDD
# protocol.summary: hA1AR binding
# assay.conditions: read-out: binding inhibition at hA1AR (% at 10 μM)
Hi! Could you send only the number? It should be in %, unit omitted.

The following compounds have reported results that may help.
Qu. Consider the compound CCOC(=O)[C@@]12C[C@@H]1[C@@H](n1ccc3c(NCC4CC4)nc(C#Cc4ccccc4)nc31)[C@H](O)[C@@H]2O and give its measured inhibition at 10 µM.
Ans. 34

Qu. Consider the compound CNC(=O)[C@@]12C[C@@H]1[C@@H](n1cnc3c(NCCC(F)(F)F)nc(C#Cc4ccc(Cl)s4)nc31)[C@H](O)[C@@H]2O and give its measured inhibition at 10 µM.
Ans. 46

Qu. Consider the compound CCOC(=O)[C@@]12C[C@@H]1[C@@H](n1ccc3c(NC)nc(C#Cc4ccccc4)nc31)[C@H](O)[C@@H]2O and give its measured inhibition at 10 µM.
Ans. 35

Qu. Consider the compound CNC(=O)[C@@]12C[C@@H]1[C@@H](n1cnc3c(NCc4cccc(Cl)c4)nc(C#Cc4ccc(F)cc4)nc31)[C@H](O)[C@@H]2O and give its measured inhibition at 10 µM.
Ans. 22

Qu. Consider the compound CCCNc1nc(C#Cc2ccc(Cl)s2)nc2c1ncn2[C@H]1[C@H](O)[C@H](O)[C@]2(C(=O)NC)C[C@H]12 and give its measured inhibition at 10 µM.
Ans. 22

More entries:
Qu. Consider the compound CCOC(=O)[C@@]12C[C@@H]1[C@@H](n1ccc3c(NC4CC4)nc(C#Cc4ccccc4)nc31)[C@H](O)[C@@H]2O and give its measured inhibition at 10 µM.
Ans. 44

Qu. Consider the compound CCOC(=O)[C@@]12C[C@@H]1[C@@H](n1cnc3c(NC)cc(C#Cc4ccc(Cl)s4)nc31)[C@H](O)[C@@H]2O and give its measured inhibition at 10 µM.
Ans. 39

Qu. Consider the compound CCOC(=O)[C@@]12C[C@@H]1[C@@H](n1ccc3c(NCCc4ccccc4)nc(C#Cc4ccccc4)nc31)[C@H](O)[C@@H]2O and give its measured inhibition at 10 µM.
Ans. 26
